# credit: patent US20190135793A1

- testSystem: KDM4C (Homo sapiens, UniProt Q9H3R0)
- Construct: Full length of KDM5B and KDM4C protein were purchased from Active Motif; purchased Active Motif 31858
- experimentDescription: KDM4C AlphaScreen assay
- Assay type: biochemical
- testParameters: AlphaScreen; full length KDM4C 0.2 nM; biotinylated H3K9Me3 peptide 3 nM; 30 minutes at room temperature
reportedEndpoint: IC50 (nM)

Reference set, count: 4
molecule: CC(C)c1c(O)nc(-n2ccnc2)nc1Oc1cccnc1 [Example 28a]
IC50, nM: 1750
//
molecule: CC(C)c1c(O)nc(-n2ccnc2)nc1-c1cccc(C(=O)N2CCOCC2)c1
IC50, nM: 7970
//
molecule: CCc1c(C)nc(-c2cncs2)nc1O
IC50, nM: 8060
//
molecule: CC(C)c1c(O)nc(-n2ccnc2)nc1-c1cnn(-c2ccccc2)c1
IC50, nM: 1560

A. CC(C)c1c(O)nc(-n2ccnc2)nc1-n1ccnc1 [Example 28b]
B. CC(C)c1c(O)nc(-c2cncs2)nc1-c1cnn(C(C)C)c1
C. Cc1nc(-n2cncc2CO)nc(O)c1C(C)C [Example 24a]
D. CC(C)c1c(O)nc(-n2ccnc2)nc1OCC(=O)NCc1cccnc1
Order by IC50, ascending. Your reply should list the labels following the order given in the request.
C, A, D, B

====

- testSystem: KDM5B (Homo sapiens, UniProt Q9UGL1)
- Construct: Full length of KDM5B and KDM4C protein were purchased from Active Motif; purchased Active Motif 31832
- Sequence (Q9UGL1 whole entry): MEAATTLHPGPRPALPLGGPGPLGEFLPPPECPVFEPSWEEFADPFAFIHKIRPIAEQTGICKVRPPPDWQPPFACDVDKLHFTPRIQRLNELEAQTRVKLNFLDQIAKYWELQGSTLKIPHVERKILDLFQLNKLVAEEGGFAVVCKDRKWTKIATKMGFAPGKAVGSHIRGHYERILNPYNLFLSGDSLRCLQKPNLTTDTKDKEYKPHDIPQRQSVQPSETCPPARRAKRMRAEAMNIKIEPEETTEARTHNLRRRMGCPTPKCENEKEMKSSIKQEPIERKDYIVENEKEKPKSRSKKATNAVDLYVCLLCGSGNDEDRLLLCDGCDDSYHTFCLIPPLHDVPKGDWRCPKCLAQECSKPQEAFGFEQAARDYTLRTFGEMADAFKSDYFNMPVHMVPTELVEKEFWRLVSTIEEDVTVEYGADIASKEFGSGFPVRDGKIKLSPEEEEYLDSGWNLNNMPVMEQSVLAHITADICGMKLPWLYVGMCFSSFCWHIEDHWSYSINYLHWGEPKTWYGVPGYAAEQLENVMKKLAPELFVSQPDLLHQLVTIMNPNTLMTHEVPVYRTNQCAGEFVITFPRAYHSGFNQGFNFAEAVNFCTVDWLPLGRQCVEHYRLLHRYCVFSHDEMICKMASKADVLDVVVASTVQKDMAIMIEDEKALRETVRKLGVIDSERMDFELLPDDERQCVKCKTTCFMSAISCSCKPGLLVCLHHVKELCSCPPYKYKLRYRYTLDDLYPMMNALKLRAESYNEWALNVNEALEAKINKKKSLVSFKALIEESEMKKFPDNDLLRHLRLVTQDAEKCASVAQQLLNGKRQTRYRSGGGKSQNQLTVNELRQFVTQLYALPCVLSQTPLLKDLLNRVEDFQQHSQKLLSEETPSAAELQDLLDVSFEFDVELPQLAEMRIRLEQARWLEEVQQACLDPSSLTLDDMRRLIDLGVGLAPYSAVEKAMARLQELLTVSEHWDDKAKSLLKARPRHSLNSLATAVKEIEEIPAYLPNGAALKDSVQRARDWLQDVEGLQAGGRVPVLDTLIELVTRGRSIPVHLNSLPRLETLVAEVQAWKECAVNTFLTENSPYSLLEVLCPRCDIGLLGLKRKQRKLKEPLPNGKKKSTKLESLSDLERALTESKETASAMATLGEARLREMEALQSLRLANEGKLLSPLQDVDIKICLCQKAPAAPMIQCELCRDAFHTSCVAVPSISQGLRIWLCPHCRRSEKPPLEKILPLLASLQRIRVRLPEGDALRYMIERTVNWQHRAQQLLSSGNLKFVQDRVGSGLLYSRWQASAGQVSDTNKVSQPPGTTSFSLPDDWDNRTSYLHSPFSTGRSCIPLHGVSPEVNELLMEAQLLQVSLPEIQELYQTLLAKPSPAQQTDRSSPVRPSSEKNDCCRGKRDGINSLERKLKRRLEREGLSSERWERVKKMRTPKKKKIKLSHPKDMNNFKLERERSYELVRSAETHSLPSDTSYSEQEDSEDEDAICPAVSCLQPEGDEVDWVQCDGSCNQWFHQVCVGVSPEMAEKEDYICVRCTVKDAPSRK
- experimentDescription: biochemical
- testParameters: AlphaScreen; full length KDM5B 0.5 nM; biotinylated H3K4Me3 peptide 3 nM; 25 minutes at room temperature; read-out: KDM5B (IC50)
- Description: KDM4C and KDM5B AlphaScreen Assay Material and Method Compounds disclosed herein were (and can be) screened using the following assay. Peptides used in all experiments were purchased from Anaspe. […] 4 μL of KDM5B or KDM4C protein were added to 384-well OptiPlate by using multiflow, followed by 4 μl of either buffer or compound. […] The plate was read on Envision plate reader (PerkinElmer) using Alphascreen protocol. IC50s were calculated in GraphPad Prism 6.
pIC50: −log10 of the molar value.
reportedEndpoint: pIC50

molecule: CC(C)c1c(O)nc(-n2ccnc2)nc1-c1cnn(Cc2ccccn2)c1
pIC50: 7.72

molecule: CC(C)c1c(O)nc(-n2ccnc2)nc1-c1cnn(C(C)(C)C)c1
pIC50: 7.57

molecule: CC(C)c1c(O)nc(-n2ccnc2)nc1-c1cnn(CC(=O)N2CCCC(O)C2)c1 (stereo not shown)
pIC50: 7.60

molecule: CC(C)c1c(O)nc(-n2ccnc2)nc1-c1cnn(CC(=O)NCCN(C)c2ccccc2)c1
pIC50: 7.85

molecule: CC(C)c1c(O)nc(-n2ccnc2)nc1OCC1CCOCC1
pIC50: 7.12

P. CC(=O)NCc1ccc(-c2nc(-n3ccnc3)nc(O)c2C(C)C)cc1
Q. CC(C)c1c(O)nc(-n2ccnc2)nc1OCC(=O)NCc1cccnc1
R. CC(C)c1c(O)nc(-n2ccnc2)nc1-c1cccc(CN)c1
Given 3 molecules, produce a descending ranking by pIC50. Your reply should list the labels following the order given in the request.
R, P, Q

====

- testSystem: KDM4C (Homo sapiens, UniProt Q9H3R0)
- Construct: Full length of KDM5B and KDM4C protein were purchased from Active Motif; purchased Active Motif 31858
- Sequence (Q9H3R0 1-1056): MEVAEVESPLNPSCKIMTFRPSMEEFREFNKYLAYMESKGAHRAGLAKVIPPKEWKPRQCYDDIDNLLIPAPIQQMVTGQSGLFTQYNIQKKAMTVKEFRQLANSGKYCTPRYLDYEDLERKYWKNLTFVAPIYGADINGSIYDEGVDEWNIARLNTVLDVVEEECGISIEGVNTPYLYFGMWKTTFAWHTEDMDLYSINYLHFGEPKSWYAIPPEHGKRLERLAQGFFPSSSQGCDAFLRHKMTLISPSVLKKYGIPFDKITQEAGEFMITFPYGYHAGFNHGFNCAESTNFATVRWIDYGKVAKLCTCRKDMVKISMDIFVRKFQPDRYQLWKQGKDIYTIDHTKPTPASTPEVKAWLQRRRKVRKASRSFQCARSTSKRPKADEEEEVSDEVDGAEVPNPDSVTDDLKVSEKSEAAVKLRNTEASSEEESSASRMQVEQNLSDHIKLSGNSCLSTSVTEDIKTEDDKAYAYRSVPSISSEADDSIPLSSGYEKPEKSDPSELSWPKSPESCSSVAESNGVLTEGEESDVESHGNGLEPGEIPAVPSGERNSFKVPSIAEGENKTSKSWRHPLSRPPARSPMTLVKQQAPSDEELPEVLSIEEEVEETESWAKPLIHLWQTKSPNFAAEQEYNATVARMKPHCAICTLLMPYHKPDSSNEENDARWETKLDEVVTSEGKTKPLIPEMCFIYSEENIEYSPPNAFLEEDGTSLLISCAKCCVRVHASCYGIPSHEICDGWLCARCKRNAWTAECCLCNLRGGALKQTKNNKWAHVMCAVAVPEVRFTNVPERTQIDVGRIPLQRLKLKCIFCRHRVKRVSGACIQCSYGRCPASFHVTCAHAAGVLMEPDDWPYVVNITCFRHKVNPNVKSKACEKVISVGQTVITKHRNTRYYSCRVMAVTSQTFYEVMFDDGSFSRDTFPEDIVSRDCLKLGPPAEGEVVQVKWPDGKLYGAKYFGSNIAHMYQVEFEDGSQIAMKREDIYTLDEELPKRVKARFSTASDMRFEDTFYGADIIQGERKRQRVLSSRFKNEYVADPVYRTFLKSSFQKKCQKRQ
- experimentDescription: KDM4C AlphaScreen assay
- Assay type: biochemical
- testParameters: AlphaScreen; full length KDM4C 0.2 nM; biotinylated H3K9Me3 peptide 3 nM; 30 minutes at room temperature
- Experimental: KDM4C and KDM5B AlphaScreen Assay Material and Method Compounds disclosed herein were (and can be) screened using the following assay. Peptides used in all experiments were purchased from Anaspe. Full length of KDM5B and KDM4C protein were purchased from Active Motif: KDM5B (cat#31832) and KDM4C (Cat #31858). Final concentration of KDM5B and KDM4C used in the assay were 0.5 nM and 0.2 nM. Final concentration of peptides for 5B and 4C used in the assay were 3 nM. […]
reportedEndpoint: IC50 (nM)

I. CC(C)c1c(O)nc(-n2ccnc2)nc1-c1cnn(CC(=O)NCC(N)=O)c1
II. CC(C)c1c(O)nc(-n2ccnc2)nc1-c1ccc(CN)cc1
For I and II , which recorded IC50 is lower? # reply format: chosen label
II
(II: 554 nM, I: 2030 nM)

I. CC(C)c1c(O)nc(-n2ccnc2)nc1-c1cnn(CC(=O)NCCN(C)CC(F)(F)F)c1
II. CC(C)c1c(O)nc(-n2ccnc2)nc1-c1cnn(CC(=O)NCCN2CCC(F)(F)CC2)c1
Given I and II , report the one with the higher recorded IC50. # reply format: chosen label
I
